- assay-comment: Clinical trial of compound A in conventional formulations (not published)
- applied-conditions: human, in vivo; read-out: elimination half-life (T1/2)
observable: half-life

> print(dat)
                                   molecule  observable            result
1  Nc1nc(CC(=O)Nc2ccc(CCNC[C@H](O)c3ccccc3)cc2)cs1 [compound A]   half-life  1080 to 1440 min
